ASSAY TARGET: PI3K delta (Homo sapiens)
Construct: for the full-length p110-d subunit are generated and fused by overlapping PCR; p85(iSH2) fusion partner (see partner chain) (N); His tag (C); Tn5 (Trichoplusia ni) or TiniPro insect cells
Sequence (O00329 with tags, fused parts or gaps limits assumed): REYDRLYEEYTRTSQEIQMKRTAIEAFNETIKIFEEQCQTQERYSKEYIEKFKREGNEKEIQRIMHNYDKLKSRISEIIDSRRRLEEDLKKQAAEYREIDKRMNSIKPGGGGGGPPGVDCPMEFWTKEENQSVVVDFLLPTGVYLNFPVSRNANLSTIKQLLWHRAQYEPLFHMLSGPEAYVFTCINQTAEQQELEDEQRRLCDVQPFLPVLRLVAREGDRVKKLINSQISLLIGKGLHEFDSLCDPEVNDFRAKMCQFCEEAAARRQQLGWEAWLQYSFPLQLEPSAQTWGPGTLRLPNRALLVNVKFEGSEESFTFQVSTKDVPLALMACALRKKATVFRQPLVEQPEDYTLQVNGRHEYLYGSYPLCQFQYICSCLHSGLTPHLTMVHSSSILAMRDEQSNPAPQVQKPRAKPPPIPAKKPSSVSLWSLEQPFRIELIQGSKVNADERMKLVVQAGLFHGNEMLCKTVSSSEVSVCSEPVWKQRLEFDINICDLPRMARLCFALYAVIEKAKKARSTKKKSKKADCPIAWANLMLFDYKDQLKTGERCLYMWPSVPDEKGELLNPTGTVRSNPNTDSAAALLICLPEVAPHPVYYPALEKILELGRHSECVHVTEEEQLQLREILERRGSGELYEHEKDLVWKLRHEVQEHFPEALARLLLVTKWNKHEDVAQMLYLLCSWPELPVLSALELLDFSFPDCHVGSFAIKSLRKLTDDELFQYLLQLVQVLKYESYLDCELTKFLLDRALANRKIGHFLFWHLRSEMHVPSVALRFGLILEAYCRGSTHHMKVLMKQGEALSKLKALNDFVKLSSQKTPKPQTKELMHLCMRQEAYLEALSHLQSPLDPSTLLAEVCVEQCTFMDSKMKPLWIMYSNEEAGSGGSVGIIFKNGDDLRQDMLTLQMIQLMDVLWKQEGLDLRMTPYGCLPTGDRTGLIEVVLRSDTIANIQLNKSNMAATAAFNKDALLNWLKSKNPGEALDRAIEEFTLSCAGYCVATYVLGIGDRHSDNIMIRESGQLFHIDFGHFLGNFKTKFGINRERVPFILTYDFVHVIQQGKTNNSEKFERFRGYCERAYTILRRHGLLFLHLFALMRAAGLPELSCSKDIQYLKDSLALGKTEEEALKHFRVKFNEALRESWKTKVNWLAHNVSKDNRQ
RUN DESCRIPTION: PI3K delta kinase assay (Kinase-Glo luminescence)
The compounds listed here are annotated with their pIC50.
Note on units: pIC50 is unitless, being -log10 of a concentration expressed in mol/L.

A selection of reference data follows.
>>> recorded_result("Cc1nn(C)cc1-n1c(=O)n(C)c2cnc3ccc(-c4cncc(OC(C)C)c4)cc3c21 [Example 58.1]")
8.10
>>> recorded_result("COc1ccc(-c2ccc3ncc4c(c3c2)n(-c2cn(CCO)nc2C)c(=O)n4C)cn1 [Example 103.1]")
7.72

Find the measured pIC50: item CNc1ncc(-c2ccc3ncc4c(c3c2)n(-c2c(C)nn(C)c2C)c(=O)n4C)cc1C(F)(F)F [Example 144.1] , target or system PI3K delta (Homo sapiens).
7.89

Notebook entry, PI3K delta (Homo sapiens) assay: pIC50 of CCOc1cncc(-c2ccc3ncc4c(c3c2)n(-c2c(C)cnn2C)c(=O)n4C)c1 [Example 56.5] = ?
6.71

// fetch PI3K delta (Homo sapiens) pIC50 for CCOc1cc(-c2ccc3ncc4c(c3c2)n(-c2c(C)nn(CCOC)c2C)c(=O)n4C)cnc1C [Example 85.2]
7.24

So what pIC50 did CCn1cc(-n2c(=O)n(C)c3cnc4ccc(-c5ccc(NC)nc5)cc4c32)c(C)n1 [Example 118.4] get with PI3K delta (Homo sapiens)?
7.72

Please tell me: pIC50 of COCCn1nc(C)c(-n2c(=O)n(C)c3cnc4ccc(-c5cncc(NC(C)C)c5)cc4c32)c1C [Example 177.2] , system PI3K delta (Homo sapiens)?
7.15
